Biological target: T1, human LIV-1 (human, UniProt Q13433 29-755)
T1 sequence (looked up): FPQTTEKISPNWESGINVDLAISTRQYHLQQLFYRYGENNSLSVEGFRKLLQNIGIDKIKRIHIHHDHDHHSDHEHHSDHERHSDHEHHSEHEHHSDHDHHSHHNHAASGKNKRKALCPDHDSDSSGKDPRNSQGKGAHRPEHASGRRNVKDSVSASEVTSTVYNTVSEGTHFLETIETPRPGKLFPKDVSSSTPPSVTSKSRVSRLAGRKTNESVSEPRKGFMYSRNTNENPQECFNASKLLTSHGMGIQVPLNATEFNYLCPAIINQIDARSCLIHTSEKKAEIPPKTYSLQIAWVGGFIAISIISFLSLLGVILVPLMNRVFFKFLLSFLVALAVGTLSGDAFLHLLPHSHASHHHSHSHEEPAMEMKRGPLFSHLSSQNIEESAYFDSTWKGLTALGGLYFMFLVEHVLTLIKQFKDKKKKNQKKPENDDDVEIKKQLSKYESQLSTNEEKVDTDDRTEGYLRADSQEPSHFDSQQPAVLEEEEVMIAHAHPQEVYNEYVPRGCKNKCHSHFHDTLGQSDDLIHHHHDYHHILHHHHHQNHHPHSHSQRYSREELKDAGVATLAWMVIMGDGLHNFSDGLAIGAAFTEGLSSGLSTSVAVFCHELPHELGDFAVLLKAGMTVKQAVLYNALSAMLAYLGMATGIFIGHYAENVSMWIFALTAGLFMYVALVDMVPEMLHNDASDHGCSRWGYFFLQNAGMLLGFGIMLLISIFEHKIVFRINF
Test: cell-based or functional assay
MEASUREMENT_NAME: ADCC reporter Top (RFU)
// units = RFU; emit number, no label

[
  {
    "BINDER": "112H11C12 (antibody, V domains shown, Tested as chimeric antibody; also called 112H1C12) VH: QVQLQQPGAELVRPGASVKLSCKASGYTFTSYWMNWVKQRPGQGLKWIGMIDPSNSKTHYNQMFKDKATLTVDKSSNTAYMQLSSLTSEDSAVYYCARTSTTMATFAYWGQGTLVSVSA VL: DVLMTQTPLSLPVSLGDQASISCRSSQSIVHSNGNTYLEWYLQKPGQSPKLLIYKVSNRFSGVPDRFSGSGSGTDFTLKISRVEAEDLGVYYCFQASHFPLTFGAGTELDLN",
    "UNIT_TEXT": "RFU",
    "TEST_RESULT": 74700
  }
]

Pending binder:
Value lookup for ADCC reporter Top (RFU); key = 39D10B2 (antibody, V domains shown, Tested as chimeric antibody) VH: QVQLKQSGPGLVQPSQSLSITCTVSGFSLTTYGVHWVRQSPGKGLEWLGVIWTGGTTDYNAAFISRLSISKDNSKSQVFFKMNSLQANDTAMYYCARGPSSYWGQGTLVTVSA VL: DIVMTQSQKFMSTSVGDRVSVTCKASQNVDTNVVWYQQKPGQSPKALIHSASYRYSGVPDRFTGSGSGTDFTLTISNVQSEDLAEYFCQQYNNYPWTFGGGTKLEIK
151000

All values here come from patent US20240325555A1.
